- Protocol Description: xn = mol fraction of the nth substance listed, in the solute-free solvent
- Condition Notes: 298.15 K; x2 = 0.1
Kind request: treat 2 as inclusive, so solubility (g/100 g solution) at 2 or higher is y, anything lower is n.

{"Compound": "S=c1[nH]ncs1 + CCCO + O", "Group Label": "y"}
{"Compound": "S=c1[nH]ncs1 + CCO + O", "Group Label": "y"}
{"Compound": "S=c1[nH]ncs1 + CO + O", "Group Label": "n"}
{"Compound": "S=c1[nH]ncs1 + CC(C)=O + O", "Group Label": "y"}
{"Compound": "Cc1ncc(C[n+]2csc(CCO)c2C)c(N)n1.O=[N+]([O-])[O-] + O + CO", "Group Label": "n"}

----------
Listed next: entries and their corresponding solubility (g/100 g solution).
- Protocol Description: xn = mol fraction of the nth substance listed, in the solute-free solvent
- Condition Notes: 308.15 K; x2 = 0.5

{"Molecule": "S=c1[nH]ncs1 + CCCO + O", "solubility (g/100 g solution)": 18.1}
{"Molecule": "S=c1[nH]ncs1 + CCO + O", "solubility (g/100 g solution)": 18.1}
{"Molecule": "Cc1ncc(C[n+]2csc(CCO)c2C)c(N)n1.O=[N+]([O-])[O-] + O + CC(C)O", "solubility (g/100 g solution)": 0.715}
{"Molecule": "OCCN(CCO)c1nc(N2CCCCC2)c2nc(N(CCO)CCO)nc(N3CCCCC3)c2n1 + CO + O", "solubility (g/100 g solution)": 1.64}
{"Molecule": "OCCN(CCO)c1nc(N2CCCCC2)c2nc(N(CCO)CCO)nc(N3CCCCC3)c2n1 + CCO + O", "solubility (g/100 g solution)": 11.4}
{"Molecule": "OCCN(CCO)c1nc(N2CCCCC2)c2nc(N(CCO)CCO)nc(N3CCCCC3)c2n1 + CC(C)O + O", "solubility (g/100 g solution)": 18.1}
{"Molecule": "Cc1ncc(C[n+]2csc(CCO)c2C)c(N)n1.O=[N+]([O-])[O-] + O + CC(C)=O", "solubility (g/100 g solution)": 0.842}
{"Molecule": "CCCCCOC(=O)Nc1nc(=O)n(C2OC(C)C(O)C2O)cc1F (stereo unspecified) + CCOC(C)=O + CCCCCCC", "solubility (g/100 g solution)": 0.337}
{"Molecule": "S=c1[nH]ncs1 + CO + O", "solubility (g/100 g solution)": 13.7}
{"Molecule": "Cc1ncc(C[n+]2csc(CCO)c2C)c(N)n1.O=[N+]([O-])[O-] + O + CO", "solubility (g/100 g solution)": 2.64}
{"Molecule": "S=c1[nH]ncs1 + CC(C)=O + O", "solubility (g/100 g solution)": 32.6}

----------
- Protocol Description: xn = mol fraction of the nth substance listed, in the solute-free solvent
- Condition Notes: 308.15 K; x2 = 0.7
Measured solubility (g/100 g solution), listed per entry for reference.

{"Molecule": "CCCCCOC(=O)Nc1nc(=O)n(C2OC(C)C(O)C2O)cc1F (stereo unspecified) + CCOC(C)=O + CCCCCCC", "solubility (g/100 g solution)": 1.07}
{"Molecule": "S=c1[nH]ncs1 + CCO + O", "solubility (g/100 g solution)": 19.5}
{"Molecule": "S=c1[nH]ncs1 + CO + O", "solubility (g/100 g solution)": 19.3}
{"Molecule": "Cc1ncc(C[n+]2csc(CCO)c2C)c(N)n1.O=[N+]([O-])[O-] + O + CC(C)O", "solubility (g/100 g solution)": 2.11}
{"Molecule": "Cc1ncc(C[n+]2csc(CCO)c2C)c(N)n1.O=[N+]([O-])[O-] + O + CO", "solubility (g/100 g solution)": 3.75}
{"Molecule": "OCCN(CCO)c1nc(N2CCCCC2)c2nc(N(CCO)CCO)nc(N3CCCCC3)c2n1 + CCO + O", "solubility (g/100 g solution)": 13.1}
{"Molecule": "Cc1ncc(C[n+]2csc(CCO)c2C)c(N)n1.O=[N+]([O-])[O-] + O + CC(C)=O", "solubility (g/100 g solution)": 2.69}
{"Molecule": "S=c1[nH]ncs1 + CCCO + O", "solubility (g/100 g solution)": 17.3}
{"Molecule": "OCCN(CCO)c1nc(N2CCCCC2)c2nc(N(CCO)CCO)nc(N3CCCCC3)c2n1 + CO + O", "solubility (g/100 g solution)": 5.11}
{"Molecule": "S=c1[nH]ncs1 + CC(C)=O + O", "solubility (g/100 g solution)": 33.2}
{"Molecule": "OCCN(CCO)c1nc(N2CCCCC2)c2nc(N(CCO)CCO)nc(N3CCCCC3)c2n1 + CC(C)O + O", "solubility (g/100 g solution)": 15.8}
